measuredTarget: SARS-CoV-2 Spike Protein (S1 Subunit, Fc Tag) (Sino 40591-V02H) (SARS-CoV-2, UniProt P0DTC2 16-685)
methodDescription: Luminex bead assay, supernatant on antigen microspheres
The binders listed here are annotated with their Binding signal (MFI).
endpoint: Binding signal (MFI)

• mAb10967 (antibody, V domains shown) VH: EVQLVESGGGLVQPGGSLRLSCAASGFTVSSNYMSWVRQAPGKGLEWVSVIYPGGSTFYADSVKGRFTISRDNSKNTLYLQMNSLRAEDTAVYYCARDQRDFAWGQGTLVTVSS VL: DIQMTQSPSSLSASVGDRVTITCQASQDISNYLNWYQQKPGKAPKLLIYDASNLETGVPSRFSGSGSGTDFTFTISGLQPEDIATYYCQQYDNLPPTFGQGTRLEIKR = 15800
• mAb10971 (antibody, V domains shown) VH: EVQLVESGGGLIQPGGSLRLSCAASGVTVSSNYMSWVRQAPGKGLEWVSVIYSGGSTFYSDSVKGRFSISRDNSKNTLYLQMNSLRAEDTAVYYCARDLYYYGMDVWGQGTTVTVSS VL: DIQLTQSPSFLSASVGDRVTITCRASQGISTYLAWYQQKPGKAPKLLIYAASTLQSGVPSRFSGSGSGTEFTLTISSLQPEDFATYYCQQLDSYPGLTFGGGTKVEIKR = 17000
• mAb10964 (antibody, V domains shown) VH: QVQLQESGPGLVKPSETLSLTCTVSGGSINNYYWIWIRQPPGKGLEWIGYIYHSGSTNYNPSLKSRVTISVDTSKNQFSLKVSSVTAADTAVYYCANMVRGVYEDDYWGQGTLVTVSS VL: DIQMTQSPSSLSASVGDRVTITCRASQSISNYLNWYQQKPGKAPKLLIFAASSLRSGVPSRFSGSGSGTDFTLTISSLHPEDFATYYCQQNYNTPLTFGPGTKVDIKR = 18600
• mAb10985 (antibody, V domains shown) VH: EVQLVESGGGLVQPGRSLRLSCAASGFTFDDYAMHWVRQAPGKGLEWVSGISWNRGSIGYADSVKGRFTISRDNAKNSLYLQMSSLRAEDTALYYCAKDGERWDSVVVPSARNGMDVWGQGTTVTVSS VL: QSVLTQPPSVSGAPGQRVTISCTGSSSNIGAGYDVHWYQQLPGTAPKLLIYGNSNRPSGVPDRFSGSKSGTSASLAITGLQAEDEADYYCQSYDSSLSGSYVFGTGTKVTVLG = 16200
• mAb10954 (antibody, V domains shown) VH: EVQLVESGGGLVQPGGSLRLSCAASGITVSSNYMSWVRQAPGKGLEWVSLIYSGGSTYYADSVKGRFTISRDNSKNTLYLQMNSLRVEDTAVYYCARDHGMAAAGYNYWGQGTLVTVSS VL: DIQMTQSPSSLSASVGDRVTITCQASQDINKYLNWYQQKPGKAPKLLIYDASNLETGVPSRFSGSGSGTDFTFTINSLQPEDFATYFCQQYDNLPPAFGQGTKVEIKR = 16600
